Molecular target: human TRPM8 (Homo sapiens)
Construct: expressed in transfected cells; host or cells: HEK-293/TRPM8 exon1 K3 cells
Sequence (Q7Z2W7 whole entry): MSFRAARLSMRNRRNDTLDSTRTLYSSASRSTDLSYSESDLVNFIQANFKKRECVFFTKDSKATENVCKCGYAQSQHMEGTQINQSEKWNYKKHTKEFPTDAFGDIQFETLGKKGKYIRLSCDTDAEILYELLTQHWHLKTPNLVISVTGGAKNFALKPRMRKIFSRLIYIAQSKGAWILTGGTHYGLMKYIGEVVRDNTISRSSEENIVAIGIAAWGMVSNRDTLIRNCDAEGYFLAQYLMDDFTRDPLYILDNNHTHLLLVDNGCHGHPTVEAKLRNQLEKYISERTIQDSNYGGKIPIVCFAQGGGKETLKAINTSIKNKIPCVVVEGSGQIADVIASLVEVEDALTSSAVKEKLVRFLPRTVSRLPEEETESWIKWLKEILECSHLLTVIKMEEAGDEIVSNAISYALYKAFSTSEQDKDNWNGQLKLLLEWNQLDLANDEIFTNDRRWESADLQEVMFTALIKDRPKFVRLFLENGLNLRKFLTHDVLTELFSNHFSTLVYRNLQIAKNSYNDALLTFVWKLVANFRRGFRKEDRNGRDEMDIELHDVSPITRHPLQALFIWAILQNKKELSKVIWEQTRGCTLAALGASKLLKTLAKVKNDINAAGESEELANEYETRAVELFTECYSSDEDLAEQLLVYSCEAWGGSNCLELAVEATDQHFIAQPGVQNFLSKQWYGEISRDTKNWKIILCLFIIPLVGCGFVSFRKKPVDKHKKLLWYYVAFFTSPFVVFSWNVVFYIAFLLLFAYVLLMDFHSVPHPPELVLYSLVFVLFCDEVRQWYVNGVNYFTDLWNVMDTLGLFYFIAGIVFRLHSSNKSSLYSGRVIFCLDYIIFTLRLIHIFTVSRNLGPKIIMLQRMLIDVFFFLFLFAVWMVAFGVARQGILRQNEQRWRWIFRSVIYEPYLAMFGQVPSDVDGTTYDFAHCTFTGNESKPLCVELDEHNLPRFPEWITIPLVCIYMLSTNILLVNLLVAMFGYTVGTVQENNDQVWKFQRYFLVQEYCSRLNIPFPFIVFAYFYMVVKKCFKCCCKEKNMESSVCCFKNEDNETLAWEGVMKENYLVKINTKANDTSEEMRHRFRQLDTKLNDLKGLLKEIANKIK
Test: Patch-clamp assay on TRPM8 channels (HEK-293/TRPM8 cells, menthol-evoked currents)
Assay type: cell-based
Settings: TRPM8 antagonist, menthol-evoked currents; one range for both compounds; read-out: IC50
Description: Patch clamp experiments for compounds 4, 5 and 9 were done as described. HEK-293/TRPM8 exon 1 cells were seeded 3 or 4 days before experiment at a concentration of 4 and 2.5 million cells, respectively, onto a T225 flask. […] The antagonistic effect on human TRPM8 current of target compounds was evaluated after application of the agonist (menthol, 300 μM), in the absence or presence of increasing concentrations of the compound under investigation. […]
pIC50: −log10 of the molar value.
readout: pIC50

Query c1ccc(COc2ccc3[nH]cc(CCNCc4ccc(Oc5ccccc5)cc4)c3c2)cc1 [Compound 4] yields pIC50 of 6.47 to 6.69

Query O=[N+]([O-])c1ccc(Sc2[nH]c3ccccc3c2CCNCc2ccc(Oc3ccccc3)cc2)c([N+](=O)[O-])c1 [Compound 5] yields pIC50 of 6.47 to 6.69
